Reported Percent Effect values follow for various compounds
Test system: Trypanosoma brucei
protocol details: Trypanosoma brucei 72 hour study
Format: functional, organism-based
Set-up: scale not given: in the data most compounds retested in dose-response had high values
settings: 30.3 µM; […]
The campaign covered roughly 66,000 compounds. About 960 (1.5%) showed an effect of 50% or more. What follows is part of a selection rich in strong results, with near analogues and random picks from the rest.

{"columns": ["compound", "subject of test", "Percent Effect, %"],
 "data": [
  ["CCN(CC)CCCNCc1cc2cc(C)cc(C)c2[nH]c1=O", "Trypanosoma brucei", 66.62],
  ["Cn1cccc1C(=O)N[C@H]1CN(Cc2ccoc2)[C@@H]2CCCO[C@H]12.O=C(O)C(F)(F)F", "Trypanosoma brucei", -1.992],
  ["COc1ccc(S(=O)(=O)N2CCOC(Cn3ccnc3)C2)cc1.Cc1ccc(S(=O)(=O)O)cc1 (stereo not given)", "Trypanosoma brucei", -20.84],
  ["Cl.c1cnc2c(c1)cc([C@H]1CCCO1)n2CCN1CCCC1", "Trypanosoma brucei", 24.71],
  ["O=C(O)C(F)(F)F.O=C(O)C(F)(F)F.O=C(c1cnc2n1CCN(Cc1ccccc1)C2)N1CCCC1", "Trypanosoma brucei", -305.8],
  ["Cc1ccc(N(C)S(=O)(=O)c2cc(C(=O)O)cs2)cc1", "Trypanosoma brucei", -13.08],
  ["O=C1CC(c2cccc(Cl)c2)c2snc(C(=O)O)c2N1 (stereo not given)", "Trypanosoma brucei", -31.06],
  ["CCOc1ccccc1-c1cc(N)[nH]n1.Cl", "Trypanosoma brucei", -3.53],
  ["O=C(O)C(F)(F)F.O=C(O)C(F)(F)F.O=C(O)C(F)(F)F.c1cnn(C[C@@H]2C[C@@H]3CN(CC4CC4)CC[C@@H]3N2c2nccs2)c1", "Trypanosoma brucei", 61.8],
  ["CCn1nc2c(cc1=O)CN(Cc1coc(-c3ccccc3)n1)CC2", "Trypanosoma brucei", 3.49]
]}

###

System: Trypanosoma brucei
protocol details: Trypanosoma brucei 72 hour study
Assay type: functional, organism-based
Parameters: scale not given: in the data most compounds retested in dose-response had high values
settings: 30 µM; 30.03 µM
About 960 (1.5%) of roughly 66,000 compounds showed an effect of 50% or more. The sample as a whole holds a higher share of strong results than the screen did.
observation type: Percent Effect (%)

{"columns": ["molecule", "subject of test", "unit name", "reported"],
 "data": [
  ["O=C(NCCSCc1ccc(Br)s1)C1CCCN(C(=O)c2cccs2)C1 (configuration not stated)", "Trypanosoma brucei", "%", 59.17],
  ["COCc1nc2cc(NCc3ccncc3)ccc2o1", "Trypanosoma brucei", "%", 16.85],
  ["Cc1cc(NCc2cccnc2)n2nc(C)cc2n1", "Trypanosoma brucei", "%", 51.67],
  ["CCc1nnc(CN(C)CC2CCCCC2)o1", "Trypanosoma brucei", "%", -20.72],
  ["CCC(C)CNc1ccc2oc(COC)nc2c1 (configuration not stated)", "Trypanosoma brucei", "%", 94.42],
  ["O=C(NCCSCc1cccs1)C1CCCN(C(=O)N2CCCC2)C1 (configuration not stated)", "Trypanosoma brucei", "%", -13.33],
  ["COCc1nc2cc(NCc3ccc(C)o3)ccc2o1", "Trypanosoma brucei", "%", 13.96],
  ["Cn1cccc1C(=O)N1CCN(CC2CC2)c2ncccc2C1", "Trypanosoma brucei", "%", 57.2],
  ["O=C(CC1CC1)N1CCC2(CC1)CN(c1ncccn1)CCO2", "Trypanosoma brucei", "%", 61.77],
  ["CCc1nc(NCC(=O)N2CCOCC2)c2c(n1)c(C)nn2CC", "Trypanosoma brucei", "%", 60.24],
  ["O=C(c1cccs1)N1CCN(CC2CC2)c2ncccc2C1", "Trypanosoma brucei", "%", -33.24],
  ["Cc1cc(NCc2ccc(CO)cc2)n2nc(C)cc2n1", "Trypanosoma brucei", "%", 21.61]
]}

###

Tested on: Trypanosoma brucei
protocol details: Trypanosoma brucei 72 hour study
Format: functional, organism-based
Parameters: scale not given: in the data most compounds retested in dose-response had high values
settings: 30 µM; 30.03 µM
In all, about 66,000 compounds went through this assay and about 960 (1.5%) showed an effect of 50% or more. What follows is part of a selection rich in strong results, with near analogues and random picks from the rest.
Reported Percent Effect values follow for various compounds
observation type: Percent Effect (%)

{"columns": ["compound", "observation type", "unit name", "reported"],
 "data": [
  ["CC(C)N1CCC2(CC1)CC(NCc1ccccn1)c1ccccc1O2.O=C(O)C(F)(F)F.O=C(O)C(F)(F)F.O=C(O)C(F)(F)F (configuration not stated)", "Percent Effect", "%", 2.75],
  ["CCCOc1c(Cl)cc(C(=O)N2CCOC23CCN(C)CC3)cc1Cl", "Percent Effect", "%", -15.42],
  ["CCCc1cncnc1N1CCC(NCCc2ccc(O)cc2)CC1", "Percent Effect", "%", -6.649],
  ["CS(=O)(=O)N1C[C@@H]2CC[C@H](C1)N(Cc1ccsc1)C2", "Percent Effect", "%", -69.04],
  ["O=C(Cn1cccn1)Nc1ccc(N2CCCCC2)cc1", "Percent Effect", "%", -14.86],
  ["CCN1CCC2(CC1)OCCN2C(=O)c1ccc(OC)c(Cl)c1.Cl", "Percent Effect", "%", 50.46],
  ["COc1cccc(CN(C)C(=O)CN2CC(n3nc(C)cc3C)C2)c1", "Percent Effect", "%", 1.154],
  ["Cc1nc[nH]c1CN1C[C@@H]2CC[C@H](C1)N(C(=O)CCc1cccnc1)C2", "Percent Effect", "%", -21.46],
  ["Cc1ccc(C(=O)N2CCOCC2C(N)=O)c(F)c1 (configuration not stated)", "Percent Effect", "%", -8.01],
  ["CN(Cc1cccc(O)c1)CC1CCCN(CCc2ccc(Cl)cc2)C1 (configuration not stated)", "Percent Effect", "%", 55.85],
  ["Cc1nc(CN2CCc3nc(N4CCCC4)nc(NC(C)C)c3C2)cs1", "Percent Effect", "%", 98.38],
  ["COc1ccccc1N1CCC(NCc2c(C)noc2C)C1 (configuration not stated)", "Percent Effect", "%", -20.42],
  ["CCn1cc2c(n1)CN(Cc1ccncc1)CC2COCC1CC1.O=C(O)C(F)(F)F.O=C(O)C(F)(F)F (configuration not stated)", "Percent Effect", "%", 16.48],
  ["CNc1nc(C)c(C(=O)N2C[C@H]3CC[C@@H]2CN(c2cnccn2)C3)s1", "Percent Effect", "%", -23.46],
  ["O=C(c1cc2c(Cl)cccc2[nH]1)N1CCN(CCc2ccccn2)CC1", "Percent Effect", "%", 6.57],
  ["Cc1cc(C)n(C2CN(CC(=O)N(C)Cc3ccsc3)C2)n1", "Percent Effect", "%", 62.05],
  ["O=C(O)C(F)(F)F.O=C(c1ccco1)N1C[C@H]2CCCN(Cc3ccoc3)[C@H]2C1", "Percent Effect", "%", -0.7502],
  ["O=C(O)C(F)(F)F.O=C(O)C(F)(F)F.c1cncc(OCc2noc3c2CN(Cc2ccco2)CC3)c1", "Percent Effect", "%", -42.06],
  ["Cc1nc[nH]c1CN1CCN(C(=O)CN2CCCC2)[C@H]2CS(=O)(=O)C[C@H]21", "Percent Effect", "%", 8.106],
  ["O=C1OCCN1CC(=O)N1C[C@H]2CC[C@@H]1CN(Cc1cscn1)C2", "Percent Effect", "%", -38.65],
  ["Cc1cnn(CCNCc2nc(Cc3ccccc3)no2)c1", "Percent Effect", "%", -8.184],
  ["CN(C)S(=O)(=O)N1C[C@@H]2CC[C@H](C1)N(Cc1ccc3nsnc3c1)C2", "Percent Effect", "%", 2.112],
  ["Cc1ncn(CCNC(=O)Nc2ccc(OC(F)(F)F)cc2)c(=O)c1C", "Percent Effect", "%", -6.151],
  ["CN(C)S(=O)(=O)N1C[C@@H]2CC[C@H](C1)N(Cc1ccc(F)c(F)c1)C2", "Percent Effect", "%", -42.84],
  ["O=C(O)C(F)(F)F.O=C(O)C(F)(F)F.c1cncc(CN2CCc3c(nnn3CC3CC3)C2COCC2CC2)c1 (configuration not stated)", "Percent Effect", "%", 26.56],
  ["CS(=O)(=O)N1C[C@@H]2CC[C@H](C1)N(Cc1ccc3nsnc3c1)C2", "Percent Effect", "%", -23.46],
  ["Cn1cnnc1C1CCCN(C(=O)c2cc(-c3ccccc3)on2)C1 (configuration not stated)", "Percent Effect", "%", -25.06],
  ["Cc1nc(NC(=O)C2CCCN(C(=O)C3CC3)C2)sc1C (configuration not stated)", "Percent Effect", "%", -11.09],
  ["Cc1cc(S(=O)(=O)NCC(C)(C)N)c(F)cc1F.Cl", "Percent Effect", "%", -16.3],
  ["CN(Cc1ccccc1O)CC1CCCN(CCc2ccc(Cl)cc2)C1 (configuration not stated)", "Percent Effect", "%", 6.545],
  ["COCC1CC2(CCN(C(=O)c3ccc(OC)c(Cl)c3)CC2)CO1 (configuration not stated)", "Percent Effect", "%", -6.719],
  ["Cc1nc(Nc2nnc(C)s2)cc(C2CCCN2C)n1 (configuration not stated)", "Percent Effect", "%", -13.78],
  ["Cc1nc[nH]c1CN(C)CC1CCCN(CCc2ccc(Cl)cc2)C1 (configuration not stated)", "Percent Effect", "%", 61.25],
  ["CCCc1cncnc1N1CCC(NCc2ccncc2)CC1", "Percent Effect", "%", -66.51],
  ["Cc1cccc(N2CCC3(CCCN(C(=O)c4cccnc4)C3)CC2)n1.O=C(O)C(F)(F)F.O=C(O)C(F)(F)F", "Percent Effect", "%", -24.82],
  ["Cc1ccc(CN2CCN(C3CCCC3)CC2CCO)o1 (configuration not stated)", "Percent Effect", "%", -4.422],
  ["CS(=O)(=O)NCC1CCCN(Cc2ccccc2F)C1 (configuration not stated)", "Percent Effect", "%", -12.86],
  ["Cc1ccccc1C(=O)Nc1ccc(OC2CCN(C)CC2)cc1", "Percent Effect", "%", -8.393],
  ["Cc1nc[nH]c1CN1CCN(C(=O)C2(C)CC2)[C@H]2CS(=O)(=O)C[C@H]21", "Percent Effect", "%", 1.317],
  ["CN(Cc1ccncc1)CC1CCCN(CCc2ccc(Cl)cc2)C1 (configuration not stated)", "Percent Effect", "%", 15.49],
  ["CCc1nc(C)c(C(=O)NCC2COc3cc(OC)ccc3C2)o1 (configuration not stated)", "Percent Effect", "%", 22.43],
  ["Cc1cccc(C(=O)N2CCCN(CCCSCC#N)CC2)c1", "Percent Effect", "%", -25.24]
]}
